Source of measurements: paper PMC6152089

# Tested on: Trypanosoma brucei rhodesiense (bloodstream trypomastigotes, STIB 900 strain)
# test_details: In vitro anti-trypanosomal activity against Tbr
# Assay type: cell-based
# condition_notes: Trypanosoma brucei, isolated compounds; average of two determinations ± absolute deviation; read-out: Tbr (STIB900) IC50 (µg/mL)
Listed here are compounds together with their documented IC50.
Give just the number in µg/mL; leave the unit off.

Memo: CN[C@H]1CC[C@@]2(C)C(=CC[C@H]3[C@@H]4CC[C@@H]5[C@H](C)N(C)C[C@@]54[C@H](O)C[C@@H]32)C1 [Compound 16, holarrheline] , reported IC50: 2.94

Memo: C[C@H]1[C@H]2CC[C@H]3[C@@H]4C=CC5=CC(=O)CC[C@]5(C)[C@H]4CC[C@]23CN1C [Compound 9, cona-4,6-dienin-3-one] , reported IC50: 5.69

Memo: C[C@H]1[C@H]2CC[C@H]3[C@@H]4CC=C5C[C@@H](N(C)C)CC[C@]5(C)[C@H]4CC[C@]23CN1C [Compound 13, conessine] , reported IC50: 0.149

* * *

# System: Trypanosoma brucei rhodesiense (bloodstream trypomastigotes, STIB 900 strain)
# test_details: In vitro anti-trypanosomal activity against Tbr
# Format: cell-based
# condition_notes: Trypanosoma brucei, isolated compounds; average of two determinations ± absolute deviation; read-out: Tbr (STIB900) IC50 (µg/mL)
Listed here are compounds together with their documented IC50.
Give just the number in µg/mL; leave the unit off.

Guide cases for IC50, answers given:
1) CN[C@H]1CC[C@@]2(C)C(=CC[C@H]3[C@@H]4CC[C@@H]5[C@H](C)N(C)C[C@@]54[C@H](OC(=O)CC=C(C)C)C[C@@H]32)C1 ... 0.054
2) CC(C)=CCC(=O)O[C@@H]1C[C@H]2[C@@H](CC=C3C[C@@H](N(C)C)CC[C@@]32C)[C@@H]2CC[C@@H]3[C@H](C)N(C)C[C@]312 ... 0.777

Memo: C[C@]12C=CC(=O)C=C1CC[C@@H]1[C@@H]2[C@@H](O)C[C@]2(C)C(=O)CC[C@@H]12 , reported IC50: 3.64

Memo: C[C@H]1[C@H]2CC[C@H]3[C@@H]4CCC5=CC(=O)C=C[C@]5(C)[C@H]4CC[C@]23CN1C , reported IC50: 4.81

* * *

# test_details: Cytotoxicity against L6 cells
# Format: cell-based, rat
# condition_notes: rat; isolated compounds; average of two determinations (a: one replicate); read-out: Cytotoxicity L6 Cells IC50 (µg/mL)
property_name: IC50
The reply must contain the numeric value and, after it, the unit.

Guide cases for IC50, answers given:
1. CC(=O)[C@H]1CC[C@H]2[C@@H]3CC[C@H]4C[C@@H](N)CC[C@]4(C)[C@H]3CC[C@]12C [Compound 5, 3β-dihydroholaphyllamine] ... 5.51 µg/mL
2. C[C@H]1[C@H]2CC[C@H]3[C@@H]4C(=O)C=C5C=CCC[C@]5(C)[C@H]4CC[C@]23CN1C ... 13.6 µg/mL

Attention now turns to another entry.
Memo: CC(=O)[C@H]1CC[C@H]2[C@@H]3CC[C@H]4C[C@H](N)CC[C@]4(C)[C@H]3CC[C@]12C [Compound 6, 3α-dihydroholaphyllamine] , reported IC50: 5.38 µg/mL

* * *

# test_details: Cytotoxicity against L6 cells
# Type: cell-based, rat
# condition_notes: rat, L6 rat skeletal myoblast cells; isolated compounds; average of two determinations (a: one replicate); read-out: Cytotoxicity L6 Cells IC50 (µg/mL)
property_name: IC50 (µg/mL)
Give just the number in µg/mL; leave the unit off.

Memo: C[C@H]1[C@H]2CC[C@H]3[C@@H]4CC=C5C[C@@H](N(C)C)CC[C@]5(C)[C@H]4CC[C@]23CN1C , reported IC50: 21.8

* * *

# test_details: Cytotoxicity against L6 cells
# Type: cell-based, rat
# condition_notes: rat; Table 1, Leaves; L6 cells (c: one replicate); read-out: Cytotox. L6 IC50
property_name: IC50 (ng/mL)
Give just the number in ng/mL; leave the unit off.

Memo: COc1cc([C@@H]2c3cc4c(cc3[C@H](O)[C@H]3COC(=O)[C@H]23)OCO4)cc(OC)c1OC [podophyllotoxin, reference compound] , reported IC50: 4

* * *

# test_details: Cytotoxicity against L6 cells
# Assay type: cell-based, rat
# condition_notes: rat, L6 rat skeletal myoblast cells; isolated compounds; average of two determinations (a: one replicate); read-out: Cytotoxicity L6 Cells IC50
property_name: IC50 (µM)
Give just the number in µM; leave the unit off.

Memo: C[C@H]1[C@H]2CC[C@H]3[C@@H]4CC=C5C[C@@H](N(C)C)CC[C@]5(C)[C@H]4CC[C@]23CN1C , reported IC50: 61.2

* * *

# System: Trypanosoma brucei rhodesiense (bloodstream trypomastigotes, STIB 900 strain)
# test_details: In vitro anti-trypanosomal activity against Tbr
# Format: cell-based
# condition_notes: isolated compounds; average of two determinations ± absolute deviation; read-out: Tbr (STIB900) IC50
# From the text: […]
property_name: pIC50
Notebook: values listed as pIC50 are -log10 of the concentration (mol/L).

Guide cases for pIC50, answers given:
1) CC(=O)[C@H]1CC[C@H]2[C@@H]3CC[C@H]4C[C@@H](N)CC[C@]4(C)[C@H]3CC[C@]12C [Compound 5, 3β-dihydroholaphyllamine] ... 6.17
2) CC(=O)N[C@H]1CC[C@@]2(C)C(=CC[C@H]3[C@@H]4CC[C@H](C(C)=O)[C@@]4(C)CC[C@@H]32)C1 [Compound 2, holaphyllamine acetamide] ... 5.32
3) CN[C@H]1CC[C@@]2(C)C(=CC[C@H]3[C@@H]4CC[C@@H]5[C@H](C)N(C)C[C@@]54CC[C@@H]32)C1 [Compound 12, isoconessimine] ... 6.78
4) C[C@H]1[C@H]2CC[C@H]3[C@@H]4CC=C5C[C@@H](N(C)C)CC[C@]5(C)[C@H]4CC[C@]23CN1C [Compound 13, conessine] ... 6.38

Attention now turns to another entry.
Memo: CN[C@H]1CC[C@@]2(C)C(=CC[C@H]3[C@@H]4CC[C@H](C(C)=O)[C@@]4(C)CC[C@@H]32)C1 [Compound 3, 3β-N-methylholaphyllamine] , reported pIC50: 7.12

* * *

# System: Trypanosoma brucei rhodesiense (bloodstream trypomastigotes, STIB 900 strain)
# test_details: In vitro anti-trypanosomal activity against Tbr
# Assay type: cell-based
# condition_notes: isolated compounds; average of two determinations ± absolute deviation; read-out: Tbr (STIB900) IC50
Listed here are compounds together with their documented pIC50.
Notebook: values listed as pIC50 are -log10 of the concentration (mol/L).

Guide cases for pIC50, answers given:
1. CC(=O)[C@H]1CC[C@H]2[C@@H]3CC=C4C[C@@H](N)CC[C@]4(C)[C@H]3CC[C@]12C ... 6.40
2. CN[C@H]1CC[C@@]2(C)C(=CC[C@H]3[C@@H]4CC[C@@H]5[C@H](C)N(C)C[C@@]54[C@H](OC(=O)CC=C(C)C)C[C@@H]32)C1 ... 6.92

Attention now turns to another entry.
Memo: C[C@@H]1NC[C@]23CC[C@H]4[C@@H](CC=C5C[C@@H](N(C)C)CC[C@@]54C)[C@@H]2CC[C@H]13 , reported pIC50: 6.78

* * *

Listed here are compounds together with their documented pIC50.
# test_details: Cytotoxicity against L6 cells
# Type: cell-based, rat
# condition_notes: rat; isolated compounds; average of two determinations (a: one replicate); read-out: Cytotoxicity L6 Cells IC50
Notebook: values listed as pIC50 are -log10 of the concentration (mol/L).

1. C[C@H]1[C@H]2CC[C@H]3[C@@H]4C(=O)C=C5C=CCC[C@]5(C)[C@H]4CC[C@]23CN1C [Compound 10, cona-3,5-dienin-7-one] ... 4.38
2. CC(=O)[C@H]1CC[C@H]2[C@@H]3CC[C@H]4C[C@@H](N)CC[C@]4(C)[C@H]3CC[C@]12C [Compound 5, 3β-dihydroholaphyllamine] ... 4.76

Memo: CC(=O)[C@H]1CC[C@H]2[C@@H]3CC[C@H]4C[C@H](N)CC[C@]4(C)[C@H]3CC[C@]12C [Compound 6, 3α-dihydroholaphyllamine] , reported pIC50: 4.77

* * *

# System: Trypanosoma brucei rhodesiense (bloodstream trypomastigotes, STIB 900 strain)
# test_details: In vitro anti-trypanosomal activity against Tbr
# Assay type: cell-based
# condition_notes: Trypanosoma brucei, isolated compounds; average of two determinations ± absolute deviation; read-out: Tbr (STIB900) IC50 (µg/mL)
property_name: log10 of IC50 (log10 of the value in µg/mL)
log10 IC50, µg/mL

Entry CN[C@H]1CC[C@@]2(C)C(=CC[C@H]3[C@@H]4CC[C@@H]5[C@H](C)N(C)C[C@@]54CC[C@@H]32)C1 , Trypanosoma brucei rhodesiense (bloodstream trypomastigotes, STIB 900 strain) data, log10 of IC50 value: -1.25

Entry CC(=O)[C@H]1CC[C@H]2[C@@H]3CC=C4C[C@H](N)CC[C@]4(C)[C@H]3CC[C@]12C , Trypanosoma brucei rhodesiense (bloodstream trypomastigotes, STIB 900 strain) data, log10 of IC50 value: -0.93

Entry CN[C@H]1CC[C@@]2(C)C(=CC[C@H]3[C@@H]4CC[C@H](C(C)=O)[C@@]4(C)CC[C@@H]32)C1 , Trypanosoma brucei rhodesiense (bloodstream trypomastigotes, STIB 900 strain) data, log10 of IC50 value: -1.60

Entry C[C@@H]1NC[C@]23CC[C@H]4[C@@H](CC=C5C[C@@H](N(C)C)CC[C@@]54C)[C@@H]2CC[C@H]13 , Trypanosoma brucei rhodesiense (bloodstream trypomastigotes, STIB 900 strain) data, log10 of IC50 value: -1.24

Entry CC(=O)N[C@H]1CC[C@@]2(C)C(=CC[C@H]3[C@@H]4CC[C@H](C(C)=O)[C@@]4(C)CC[C@@H]32)C1 [Compound 2, holaphyllamine acetamide] , Trypanosoma brucei rhodesiense (bloodstream trypomastigotes, STIB 900 strain) data, log10 of IC50 value: 0.24
